# Tested on: Chloroquine resistance transporter (Plasmodium falciparum), Q9N623 [K76T]
# Sequence (whole entry): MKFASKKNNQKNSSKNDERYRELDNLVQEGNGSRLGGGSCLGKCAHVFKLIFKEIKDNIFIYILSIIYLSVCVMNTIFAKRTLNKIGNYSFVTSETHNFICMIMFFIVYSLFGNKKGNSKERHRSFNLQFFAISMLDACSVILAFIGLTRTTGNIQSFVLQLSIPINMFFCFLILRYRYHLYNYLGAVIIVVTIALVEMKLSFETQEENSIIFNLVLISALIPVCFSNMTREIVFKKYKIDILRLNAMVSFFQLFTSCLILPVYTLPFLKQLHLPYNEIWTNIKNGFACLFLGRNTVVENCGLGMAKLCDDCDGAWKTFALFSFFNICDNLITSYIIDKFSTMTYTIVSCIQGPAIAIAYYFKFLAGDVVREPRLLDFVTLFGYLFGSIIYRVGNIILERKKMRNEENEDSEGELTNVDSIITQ
# assayInfo: Inhibition of CRT K76T mutant in chloroquine/artemisinin-resistant Plasmodium falciparum NHP4773 assessed as reversal of chloroquine resistance by measuring reduction in chloroquine IC50 at 500 nM relative to chloroquine alone
Label criterion not met if Ratio IC50 falls below 0.9; label criterion met in every other case.

compound	assayedTarget	classLabel
NCC(c1ccccc1)c1ccccc1	Chloroquine resistance transporter (Plasmodium falciparum), Q9N623 [K76T]	criterion not met
Clc1ccc2c(c1)C(N1CCNCC1)Cc1ccccc1S2 (stereo unspecified)	Chloroquine resistance transporter (Plasmodium falciparum), Q9N623 [K76T]	criterion not met
NCC(CCN1CCC(O)CC1)(c1ccccc1)c1ccccc1	Chloroquine resistance transporter (Plasmodium falciparum), Q9N623 [K76T]	criterion met
CN(C)C(=O)C(CCN1CCC(O)(c2ccc(Cl)cc2)CC1)(c1ccccc1)c1ccccc1 [LOPERAMIDE]	Chloroquine resistance transporter (Plasmodium falciparum), Q9N623 [K76T]	criterion not met
N#CC(CCN1CCCCC1)(c1ccccc1)c1ccccc1	Chloroquine resistance transporter (Plasmodium falciparum), Q9N623 [K76T]	criterion not met

Request: Determine whether measured Ratio IC50 meets or exceeds 0.9 for `NC(=O)C(CCN1CCC(O)(c2ccc(Cl)cc2)CC1)(c1ccccc1)c1ccccc1`
Response: criterion met

Request: Determine whether measured Ratio IC50 meets or exceeds 0.9 for `Ic1ccccc1CN[C@@H]1C2CCN(CC2)[C@@H]1C(c1ccccc1)c1ccccc1`
Response: criterion not met

Request: Determine whether measured Ratio IC50 meets or exceeds 0.9 for CN1CCN(C2Cc3ccccc3Sc3ccc(Cl)cc32)CC1 (stereo unspecified) [CLOROTEPINE]
Response: criterion not met

Request: Determine whether measured Ratio IC50 meets or exceeds 0.9 for c1ccc(CN[C@@H]2C3CCN(CC3)[C@@H]2Cc2ccccc2)cc1 (relative stereo)
Response: criterion not met

Request: Determine whether measured Ratio IC50 meets or exceeds 0.9 for N[C@@H]1C2CCN(CC2)[C@@H]1C(c1ccccc1)c1ccccc1 (relative stereo)
Response: criterion met

Request: Determine whether measured Ratio IC50 meets or exceeds 0.9 for c1ccc2c(c1)CC(N1CCNCC1)c1ccccc1S2 (stereo unspecified)
Response: criterion not met

====

For each entry below, report its Ratio IC50 value.
# Test system: Chloroquine resistance transporter (Plasmodium falciparum), Q9N623 [K76T]
# assayInfo: Inhibition of CRT K76T mutant in chloroquine-resistant Plasmodium falciparum NHP4559 assessed as reversal of chloroquine resistance by measuring reduction in chloroquine IC50 at 500 nM relative to chloroquine alone
Numbers only.

compound	Ratio IC50
N#CC(CCN1CCCCC1)(c1ccccc1)c1ccccc1	0.66
CN(C)C(=O)C(CCN1CCC(O)(c2ccc(Cl)cc2)CC1)(c1ccccc1)c1ccccc1 [LOPERAMIDE]	0.79
NCC(c1ccccc1)c1ccccc1	0.52
c1ccc(CN[C@@H]2C3CCN(CC3)[C@@H]2Cc2ccccc2)cc1 (relative stereo)	0.47

Value sought for every listed compound: Ratio IC50.
1. CN1CCN(C2Cc3ccccc3Sc3ccc(Cl)cc32)CC1 (stereo unspecified) [CLOROTEPINE]
2. NC(=O)C(CCN1CCC(O)(c2ccc(Cl)cc2)CC1)(c1ccccc1)c1ccccc1

Response:
1: 1.09; 2: 1.01

Value sought for every listed compound: Ratio IC50.
1. NCC(CCN1CCC(O)CC1)(c1ccccc1)c1ccccc1
2. Ic1ccccc1CN[C@@H]1C2CCN(CC2)[C@@H]1C(c1ccccc1)c1ccccc1

Response:
1. 0.95
2. 0.28

Value sought for every listed compound: Ratio IC50.
1. N[C@@H]1C2CCN(CC2)[C@@H]1C(c1ccccc1)c1ccccc1 (relative stereo)
2. Clc1ccc2c(c1)C(N1CCNCC1)Cc1ccccc1S2 (stereo unspecified)

Response:
[0.98, 0.73]

Field Ratio IC50 (entry c1ccc2c(c1)CC(N1CCNCC1)c1ccccc1S2 (stereo unspecified) ) reads 0.68
